Source of measurements: the supplement of paper PMC10724198

protein stability index by entry:
system: Saccharomyces cerevisiae; test: protein stability index of tFT-peptide fusion (C-terminal peptide) (PSI (0-1 scale)); higher = more stable (slower turnover); details: genetic background: wild type; temperature: 30 C
Answer with a number only.

{"columns": ["CHAIN SEQUENCE", "protein stability index"],
 "data": [
  ["GLGMVIIGLLIG", 0.354],
  ["VGSGEVFEVMEG", 0.64],
  ["RGVGLGRWGPVV", 0.652],
  ["FPPHFLPLVFLS", 0.103],
  ["LPSGVPPPPPLP", 0.695],
  ["AIVRFAPWPVPR", 0.701],
  ["KKKKKKKIRKKI", 0.682],
  ["LLLLFPSPLFIR", 0.281]
]}

### Prompt What does the data say about its protein stability index? Entry: SLVNDLFFLFFY
### Response 0.523

### Prompt What does the data say about its protein stability index? Entry: RASAHLVAIVRY
### Response 0.642

====

tested on: Saccharomyces cerevisiae; assay: protein stability index of tFT-peptide fusion (C-terminal peptide) (PSI (0-1 scale)); higher = more stable (slower turnover); conditions: genetic background: wild type; temperature: 30 C
MEASUREMENT KIND: protein stability index
Answer with a number only.

### Prompt Provide value of protein stability index for this record tested with Saccharomyces cerevisiae: TFYLHSLLPTSF
### Response 0.691

### Prompt Provide value of protein stability index for this record tested with Saccharomyces cerevisiae: PFFFIFVLPFVF
### Response 0.402

====

test system: Saccharomyces cerevisiae; assay: protein stability index of tFT-peptide fusion in deletion strain of DOA10 (PSI (0-1 scale)); higher = more stable (slower turnover)
MEASUREMENT KIND: protein stability index

{"columns": ["CHAIN SEQUENCE", "RECORDED RESULT"],
 "data": [
  ["RVTRGDAIYFRI", 0.693],
  ["RSLRVLLVLYFR", 0.389],
  ["RVTRLDAISFRI", 0.727]
]}

### Prompt What does the data say about its protein stability index? Entry: GLYMCSVGCWVR
### Response 0.341

### Prompt What does the data say about its protein stability index? Entry: GLYMCSVGCWFRF
### Response 0.636

### Prompt What does the data say about its protein stability index? Entry: RITRLDAIYFRI
### Response 0.673

### Prompt What does the data say about its protein stability index? Entry: RVTRLDAGYFRI
### Response 0.702

### Prompt What does the data say about its protein stability index? Entry: HLYMCSVGCWFR
### Response 0.63

====

system: Saccharomyces cerevisiae; assay: protein stability index of tFT-peptide fusion (C-terminal peptide) (PSI (0-1 scale)); higher = more stable (slower turnover); details: genetic background: das1 deletion; temperature: 30 C
MEASUREMENT KIND: protein stability index
Answer with a number only.

### Prompt What does the data say about its protein stability index? Entry: LHMNTNRLAGIR [SEC9 C-terminal 12 aa]
### Response 0.713

### Prompt What does the data say about its protein stability index? Entry: VNPKAKRPSNEK [NOP2 C-terminal 12 aa]
### Response 0.712

### Prompt What does the data say about its protein stability index? Entry: EKTVNFIKTFGV [GUT2 C-terminal 12 aa]
### Response 0.696

====

test system: Saccharomyces cerevisiae; assay: protein stability index of tFT-peptide fusion (C-terminal peptide) (PSI (0-1 scale)); higher = more stable (slower turnover); settings: genetic background: wild type; temperature: 30 C
MEASUREMENT KIND: protein stability index

Completed entries (count: 8):
{"columns": ["CHAIN SEQUENCE", "TEST TARGET", "RECORDED RESULT"],
 "data": [
  ["GLPFPPGPIFVS", "Saccharomyces cerevisiae", 0.743],
  ["SFGACSTSERIN", "Saccharomyces cerevisiae", 0.666],
  ["RVRDPQQISILL", "Saccharomyces cerevisiae", 0.65],
  ["PRFPPLPAHRVR", "Saccharomyces cerevisiae", 0.633],
  ["LPSLRFLFPLVP", "Saccharomyces cerevisiae", 0.671],
  ["RKNIKISKAGIG", "Saccharomyces cerevisiae", 0.279],
  ["CRGGPLGYGCGS", "Saccharomyces cerevisiae", 0.827],
  ["IIVWGGAGLWGV", "Saccharomyces cerevisiae", 0.59]
]}

### Prompt What does the data say about its protein stability index? Entry: KTRNDQPQKFHN
### Response 0.688

### Prompt What does the data say about its protein stability index? Entry: GFFCVWSLLFFN
### Response 0.283

### Prompt What does the data say about its protein stability index? Entry: RVVCGGMGVRRG
### Response 0.63

### Prompt What does the data say about its protein stability index? Entry: PCPPRSLPPPTS
### Response 0.835

### Prompt What does the data say about its protein stability index? Entry: KIYKKSKKKKEI
### Response 0.688

====

tested on: Saccharomyces cerevisiae; assay: protein stability index of tFT-peptide fusion (C-terminal peptide) (PSI (0-1 scale)); higher = more stable (slower turnover); conditions: genetic background: wild type; temperature: 30 C
MEASUREMENT KIND: protein stability index
Answer with a number only.

Completed entries (count: 8):
{"columns": ["CHAIN SEQUENCE", "TEST TARGET", "protein stability index"],
 "data": [
  ["CSFCSGMILLLS", "Saccharomyces cerevisiae", 0.323],
  ["ALSRFFSVFLLV", "Saccharomyces cerevisiae", 0.266],
  ["LLAWLHTVQRVG", "Saccharomyces cerevisiae", 0.271],
  ["VCWCVVVLEFGL", "Saccharomyces cerevisiae", 0.185],
  ["SRRCGLFVFILF", "Saccharomyces cerevisiae", 0.277],
  ["MQFVALFLVGLL", "Saccharomyces cerevisiae", 0.354],
  ["GGGAGVVWVRLG", "Saccharomyces cerevisiae", 0.12],
  ["IPHLNCCCCLVR", "Saccharomyces cerevisiae", 0.328]
]}

### Prompt What does the data say about its protein stability index? Entry: FCDFLFVFPLFS
### Response 0.479

### Prompt What does the data say about its protein stability index? Entry: MACLRLTVYVMG
### Response 0.13

### Prompt What does the data say about its protein stability index? Entry: IIVLNIGSVIFC
### Response 0.406

### Prompt What does the data say about its protein stability index? Entry: IDLISRVTVVAR
### Response 0.288

### Prompt What does the data say about its protein stability index? Entry: KVFWRPAWVAEV
### Response 0.28

### Prompt What does the data say about its protein stability index? Entry: LLLVSLAVPLSL
### Response 0.459

### Prompt What does the data say about its protein stability index? Entry: HLYPFPSLHFAF
### Response 0.688

### Prompt What does the data say about its protein stability index? Entry: RITGCWKTYKMQ
### Response 0.164

### Prompt What does the data say about its protein stability index? Entry: FTFPLPPSLLLV
### Response 0.233

### Prompt What does the data say about its protein stability index? Entry: FWFLWAKMLLSC
### Response 0.109

### Prompt What does the data say about its protein stability index? Entry: ERRWVLVAWRFK
### Response 0.442

### Prompt What does the data say about its protein stability index? Entry: LTFRFGVNPYVF
### Response 0.14

### Prompt What does the data say about its protein stability index? Entry: IYFFVLRLRLCG
### Response 0.162

### Prompt What does the data say about its protein stability index? Entry: VLVVASLRFSFF
### Response 0.2

### Prompt What does the data say about its protein stability index? Entry: CFSLLFYTLSLL
### Response 0.274

### Prompt What does the data say about its protein stability index? Entry: YFFFLFFLLPPF
### Response 0.356

### Prompt What does the data say about its protein stability index? Entry: GSVGFICCVVVV
### Response 0.298

### Prompt What does the data say about its protein stability index? Entry: TPPLPTTPTLNS
### Response 0.71

### Prompt What does the data say about its protein stability index? Entry: MALAVRVVACGA
### Response 0.19

### Prompt What does the data say about its protein stability index? Entry: VLVVWLGICFGY
### Response 0.201

====

test system: Saccharomyces cerevisiae; assay: protein stability index of tFT-peptide fusion (C-terminal peptide) (PSI (0-1 scale)); higher = more stable (slower turnover); conditions: genetic background: wild type; temperature: 30 C
protein stability index by entry:
Answer with a number only.

Completed entries (count: 10):
{"columns": ["CHAIN SEQUENCE", "RECORDED RESULT"],
 "data": [
  ["GVEVVVWRSGGI", 0.688],
  ["VGCPKMTKIFFV", 0.594],
  ["TGLYLRCVWGVQ", 0.507],
  ["DPWGGTGKGHWG", 0.679],
  ["KETQKKKQDKKK", 0.703],
  ["GSGGRGTVCSEG", 0.652],
  ["PSGLLPILRLFL", 0.681],
  ["SGSGVGVVVSEV", 0.666],
  ["NGPYKAGSIVLI", 0.664],
  ["GRLPAYIHATRA", 0.631]
]}

### Prompt What does the data say about its protein stability index? Entry: SKLQGYRKLLST
### Response 0.567

### Prompt What does the data say about its protein stability index? Entry: DSHDMSQDLFVN
### Response 0.767

### Prompt What does the data say about its protein stability index? Entry: PSDYDCHRKTFS
### Response 0.738
